Target: T1, human VEGF165 (R&D) (human, UniProt P15692-4 27-191)
T1 construct: Antigen of the ForteBio assay
T1 sequence (P15692 other isoform, or with tags, fused parts or gaps limits assumed): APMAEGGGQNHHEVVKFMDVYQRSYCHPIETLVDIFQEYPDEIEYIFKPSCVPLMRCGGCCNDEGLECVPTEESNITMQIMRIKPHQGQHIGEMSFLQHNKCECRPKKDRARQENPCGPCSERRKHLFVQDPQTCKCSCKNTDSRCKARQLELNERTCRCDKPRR
Assay: BLI (ForteBio), bivalent binding
Listing of recorded kon by entry.
Give the quantity in M⁻¹ s⁻¹, number only.

LA46E11.8 (VEGFA VHH) (VHH, Humanized anti-VEGF A VHH; also called humanized LA46E11) VHH: EVQLLESGGGLVQPGGSLRLSCAASGSIFSINAMGWHRQAPGKQRELVATMIGGSSTFYAESVQGRFTISRDNSKNTVYLQMNSLRAEDTAVYYCYADVTGRSGTSIWNKRDDYWGQGTQVTVSS; 421000
LA42F8.5 (VHH, also called humanized LA42F8) VHH: EVQLLESGGGLVQPGGSLRLSCAASGFNLDYYPIGWFRQAPGKGLEGVSCISSVGSTNYADSVKGRFTISRDNSKNTVYLQMNSLRAEDTAVYYCAADPLCSALILPPPFLSWGQGTQVTVSS; 1.06e+06
LA42F8 (VEGFA VHH) (VHH, Alpaca anti-VEGF A VHH; also called LA42F8 supernatant) VHH: QLQLVESGGGLVQPGGSLRLSCAASGFNLDYYPIGWFRQAPGKEREGVSCISSVGSTNYADSVKGRFTISRDNAKNTVYLQMNSLKPEDTAVYYCAADPLCSALILPPPFLSWGQGTQVTVSS; 237000

Next item in the queue.
Request: Which kon reading was recorded for the binder LA46E11 (VEGFA VHH) (VHH, Alpaca anti-VEGF A VHH; also called LA46E11 supernatant) VHH: QVQLEESGGGLVQPGGSLRLSCVASGSIFSINAMGWHRQAPGSQRELVATMIGGSSTFYADSVNGRFTISRDNAKNTVYLQMNSLKLEDTAVYYCYADVTGRSGTSIWNKRDDYWGQGTLVTVSS ?
Response: 179000

All figures here come from patent US20260274933A1.
